Assay: HUVEC growth inhibition – cell-based, human, primary screen (AID 575);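 note: 100% = median of untreated cell wells with 0.1% DMSO on each plate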
Details: HUVEC proliferation, CellTiter-Glo luminescence, 72 h; at 10 µM; hits give low values
Hi there, I'd appreciate the recorded viability for every entry that follows.
Numbers only, in %.

// known answers, use as guide
CCCC(=O)Nc1ccccc1NC(=O)CCC | 108
Cc1onc(-c2ccccc2)c1C(=O)NCCN1CCOCC1 | 102
O=C(CN1CCCN(S(=O)(=O)c2ccc(Br)cc2)CC1)Nc1ccc2c(c1)OCO2 | 75
CC(=O)Nc1ccc(NC(=O)Cn2cc3c(n2)CCC(C)C3)cc1 (configuration not stated) | 103

Batch lookup, viability per entry.
1. N#Cc1nc(-c2ccccc2Cl)oc1N1CCOCC1
2. Cn1c(SCC(=O)c2ccc(-c3ccccc3)cc2)nnc1-c1ccco1
3. COc1ccc(OC)c(N(CC(=O)Nc2cccnc2)S(=O)(=O)c2ccc(OC)c(OC)c2)c1

84.2
93.7
91

Would you be so kind as to report viability for each listed record?
1. CCOC(=O)c1sc(NS(=O)(=O)c2ccc(NC(C)=O)cc2)nc1C
2. Cc1ccc(S(=O)(=O)N2CCOCC2)cc1C(=O)Nc1ccc(-c2cn3ccsc3n2)cc1
3. COc1ccc(-c2noc(CCC(=O)Nc3nc4ccccc4s3)n2)cc1
4. COc1ccc(OC)c(NC(=O)CSc2nnc(-c3ccco3)n2-c2ccccc2)c1
5. Nc1nc2ccccc2n1/N=C/c1ccc(Br)cc1
6. COc1ccc2c(c1)CCc1c(C(=O)N3CC4(C)CC3CC(C)(C)C4)noc1-2 (configuration not stated)
7. CCOC(=O)c1sc(NC(=O)CSc2nnc(-c3ccc(OC)cc3)n2CCOC)nc1C
8. CN(C)c1oc(-c2ccccc2Cl)nc1C#N

[112, 58.7, 88.2, 83, 72.4, 52.3, 97.2, 56.5]

Please state, for each entry, its recorded viability.
1. CC(Oc1ccccc1)C(=O)Nc1ccc(S(=O)(=O)NCC2CCCO2)cc1 (configuration not stated)
2. CCCS(=O)(=O)N1CCCC(C(=O)NC(C)c2ccc3c(c2)OCCO3)C1 (configuration not stated)

101
71.3
